Values were extracted from ChEMBL document CHEMBL1126639.

# assayed-target: D(2) dopamine receptor (Rattus norvegicus, UniProt P61169)
# Sequence (P61169 whole entry): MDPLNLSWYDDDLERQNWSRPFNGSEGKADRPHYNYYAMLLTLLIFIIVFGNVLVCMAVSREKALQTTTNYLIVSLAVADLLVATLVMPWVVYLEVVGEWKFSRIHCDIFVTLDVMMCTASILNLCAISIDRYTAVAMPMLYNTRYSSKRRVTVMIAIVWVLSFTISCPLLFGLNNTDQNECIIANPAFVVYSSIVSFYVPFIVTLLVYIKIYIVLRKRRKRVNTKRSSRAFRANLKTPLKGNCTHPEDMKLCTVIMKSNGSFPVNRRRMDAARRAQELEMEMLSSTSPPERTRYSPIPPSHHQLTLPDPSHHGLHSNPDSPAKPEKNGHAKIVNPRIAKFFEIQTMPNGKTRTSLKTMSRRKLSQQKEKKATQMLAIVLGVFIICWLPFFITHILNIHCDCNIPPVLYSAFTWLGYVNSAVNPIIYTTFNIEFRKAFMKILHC
# assay-text: Inhibitory concentration against [3H]raclopride-labeled dopamine receptor D2 in rat striatum was estimated from single point experiment. compound was run at 1 uM
observed-property: IC50

Value of IC50 reported for the compound C=CCN1CC[C@@H]2Cc3cccc(OC)c3C[C@@H]21 (racemic) is > 1000 nM

###

# Tested on: Rattus norvegicus
# assay-text: Inhibition of firing rates of serotonergic neurons in the dorsal raphe nucleus by intravenous injection in rats
# Assay type: functional
# condition-details: Rattus norvegicus, Dorsal raphe nucleus, iv; read-out: ED50
Below, each of the compounds is paired with its reported log10(ED50) value.
Hello, just confirming the data are log10 of ED50 with units of µmol/kg.

Solved cases below.
> print(dat)
                                   compound  recorded.result
1      C=CCN1CC[C@H]2Cc3c(cccc3OC)C[C@@H]21             0.60
2  C=CCN1CC[C@@H]2Cc3c(cccc3OC)C[C@H]21 (racemic)            -0.85
3  O=C(CCCN1CCC(O)(c2ccc(Cl)cc2)CC1)c1ccc(F)cc1 [HALOPERIDOL]            -1.72

Value of log10(ED50) reported for the compound C=CCN1CC[C@@H]2Cc3c(O)cccc3C[C@H]21 (racemic) is -0.46

Value of log10(ED50) reported for the compound CCCN1CC[C@@H]2Cc3c(cccc3OC)C[C@H]21 (racemic) is -1.15
